Assay: nonselective calcium mobilization agonists, CHO-Ga16 cells, counter-screen for hTAAR1 agonist project, cell-based, fluorescence, CHO-Ga16 parental line (AID 651787)
Conditions: Fluo-8 calcium fluorescence, at 3 µM, normalized to maximal ATP response, DMSO zero
About 1,200 (50%) of roughly 2,400 compounds were called active.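 Rule for the calls: active = activation above the run cutoff, the mean activation over all tested wells plus 3 SD (cut at about 12% in these data); inactive = the rest.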 The set was probably picked from earlier hits. Not all results are given here.
# output must be one of t (active), f (inactive)

Task: Hey, what did the test say about COc1ccc(C(=O)NC(=S)NNC(=O)CCc2ccccc2)cc1 ?
Result: t

Task: What did the test return for CCCCC(=O)NNC(=S)NC(=O)C(c1ccccc1)c1ccccc1 ?
Result: t

Task: Fill in: this test's call for O=C(O)C1C2C=CC(O2)C1C(=O)NCCc1cccc(Cl)c1 (configuration not stated) is ___
Result: f

Task: Please indicate how the test categorized Cc1cccc(NC(=O)C(C)N2C(=O)C3C4CC(C(Br)C4Br)C3C2=O)c1 (configuration not stated) .
Result: t

Task: What is the recorded call for this molecule in the test? CN(C)CCCN(C(=O)c1ccc(S(=O)(=O)N2CCCCCC2)cc1)c1nc2ccc(Br)cc2s1
Result: t

Task: Returns: the outcome recorded for CCCCCCCCCCOC(=O)Cn1c(COc2ccc(C)cc2)[n+](C)c2ccccc21 in this assay.
Result: t

Task: Assay outcome for OC(CNCCc1ccc(Cl)cc1Cl)COc1ccccc1 (configuration not stated) : what was it?
Result: t

Task: Which outcome did this test record for the molecule CCC(c1nnnn1Cc1ccco1)N(CCc1ccccc1)Cc1cc2cccc(C)c2[nH]c1=O (configuration not stated) ?
Result: f

Task: Hi team, can someone confirm the assay call for COc1ccc(C(=O)NNC(=S)NC(=O)c2ccccc2)cc1 ?
Result: t

Task: Just curious, what result did CCCc1ccc(OCC(=O)NNC(=S)NC(=O)c2ccco2)cc1 get here?
Result: t

Task: Record request — test call for COc1ccc(NC(=O)C(=O)NCC(c2ccco2)N2CCc3ccccc3C2)cc1 (configuration not stated)
Result: f

Task: What is the recorded call for this molecule in the test? Cc1cc(=O)oc2c(C)c(OCC(=O)NCCN3CCOCC3)ccc12
Result: f

Task: Dear all, I need the recorded test outcome for CN(C)CCCN(C(=O)c1ccc(S(=O)(=O)N2CCCc3ccccc32)cc1)c1nc2ccc(F)cc2s1 , thank you.
Result: t

Task: How did this test come out for CSc1nc(N)c(C#N)c(-c2ccccc2Cl)c1C#N ?
Result: t

Task: Recorded test outcome, item c1ccc(Nc2nc(N3CCOCC3)c3ccccc3n2)cc1
Result: t

Task: What call does the record list for CC(Oc1ccc(Cl)cc1)C(=O)OCC(=O)Nc1ncc(Cl)cc1Cl (configuration not stated) ?
Result: t

Task: Which outcome was assigned to Cc1ccccc1NC(=S)NC(=O)Cc1ccc(Cl)cc1 in this test?
Result: t

Task: Which outcome did this test record for the molecule S=C(NCCCc1cnc[nH]1)NCCCN(Cc1ccc(Cl)c(Cl)c1)c1ccc(Br)cn1 ?
Result: t

Task: Please let me know the test result on file for O=C(COC(=O)Cc1ccccc1F)NCCc1ccccc1 .
Result: f

Task: What is the recorded call for this molecule in the test? O=C(NCCc1ccccc1)Oc1ccc(Cl)cc1
Result: f

Task: Could you kindly confirm the outcome this assay logged for CC(Oc1ccc2ccccc2c1)C(=O)NNC(=S)NC(=O)c1ccco1 (configuration not stated) ?
Result: t

Task: I would be grateful if you could indicate the recorded call for COc1cccc(-c2cnc(OC(C)(C)C)nc2OC(C)(C)C)c1 .
Result: t
